Test: Clearance in Wistar rat at 1 mg/kg, iv
Type: ADME, organism-based
Design: dose 1 mg/kg, route intravenous
Conditions: in vivo
Measured clearance values are reported for all entries that follow.
Numeric answer only, unit mL/min/kg assumed.

Name the reported clearance value associated with the compound Cc1ccnc(NCC2CCN(c3ccc(CC(NC(=O)c4c(C)cc(C)cc4C)C(=O)O)cc3)CC2)c1 (racemic)
70

Also check Cc1ccnc(NCc2coc(-c3ccc(C[C@H](NC(=O)c4c(C)cc(C)cc4C)C(=O)O)cc3)c2)c1
17

Attention now turns to another entry.
Name the reported clearance value associated with the compound Cc1ccnc(NCc2cc(-c3ccc(C[C@H](NC(=O)c4c(C)cc(C)cc4C)C(=O)O)cc3)on2)c1
9

----------
Target: Integrin alpha-IIb/beta-3 (Homo sapiens, UniProt P05106+P08514)
Experiment: Binding affinity to integrin alpha2bbeta3 receptor by ELISA
Type: protein-complex assay
Measured pIC50 values are reported for all entries that follow.
pIC50 here is simply -log10 of the concentration when that concentration is written in mol/L.

Name the reported pIC50 value associated with the compound Cc1ccnc(NCc2sccc2-c2ccc(C[C@H](NC(=O)c3c(C)cc(C)cc3C)C(=O)O)cc2)c1
4.11

Also check Cc1ccnc(NCc2cnc(-c3ccc(C[C@H](NC(=O)c4c(C)cc(C)cc4C)C(=O)O)cc3)s2)c1
3.82

Others:
Name the reported pIC50 value associated with the compound Cc1ccnc(NCc2coc(-c3ccc(C[C@H](NC(=O)c4c(C)cc(C)cc4C)C(=O)O)cc3)c2)c1
4.28

Also check Cc1ccnc(NCC2CCN(c3ccc(CC(NC(=O)c4c(C)cc(C)cc4C)C(=O)O)cc3)CC2)c1 (racemic)
4.64

----------
Biological target: Integrin alpha-5/beta-1 (Homo sapiens, UniProt P05556+P08648)
Sequence (P05556 21-798 limits assumed): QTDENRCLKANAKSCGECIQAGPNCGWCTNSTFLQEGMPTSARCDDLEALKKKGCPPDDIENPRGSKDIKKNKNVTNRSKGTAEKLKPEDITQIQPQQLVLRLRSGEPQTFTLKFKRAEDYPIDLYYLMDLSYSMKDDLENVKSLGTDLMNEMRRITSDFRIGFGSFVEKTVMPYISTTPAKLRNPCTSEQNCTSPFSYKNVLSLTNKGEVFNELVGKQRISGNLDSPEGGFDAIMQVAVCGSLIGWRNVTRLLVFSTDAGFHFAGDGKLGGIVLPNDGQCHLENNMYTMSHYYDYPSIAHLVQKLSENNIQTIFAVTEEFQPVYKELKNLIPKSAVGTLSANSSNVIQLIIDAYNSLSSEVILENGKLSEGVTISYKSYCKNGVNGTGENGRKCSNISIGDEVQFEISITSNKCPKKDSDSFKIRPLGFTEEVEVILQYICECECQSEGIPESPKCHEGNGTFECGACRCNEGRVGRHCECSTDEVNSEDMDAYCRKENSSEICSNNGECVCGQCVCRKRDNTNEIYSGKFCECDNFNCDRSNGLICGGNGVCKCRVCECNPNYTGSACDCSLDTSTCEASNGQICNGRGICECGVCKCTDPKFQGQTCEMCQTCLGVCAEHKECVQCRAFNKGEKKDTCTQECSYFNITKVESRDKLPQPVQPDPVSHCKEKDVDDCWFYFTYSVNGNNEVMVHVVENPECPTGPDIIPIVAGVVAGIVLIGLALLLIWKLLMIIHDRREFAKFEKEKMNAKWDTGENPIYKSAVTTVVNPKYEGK
Sequence (P08648 42-894 limits assumed): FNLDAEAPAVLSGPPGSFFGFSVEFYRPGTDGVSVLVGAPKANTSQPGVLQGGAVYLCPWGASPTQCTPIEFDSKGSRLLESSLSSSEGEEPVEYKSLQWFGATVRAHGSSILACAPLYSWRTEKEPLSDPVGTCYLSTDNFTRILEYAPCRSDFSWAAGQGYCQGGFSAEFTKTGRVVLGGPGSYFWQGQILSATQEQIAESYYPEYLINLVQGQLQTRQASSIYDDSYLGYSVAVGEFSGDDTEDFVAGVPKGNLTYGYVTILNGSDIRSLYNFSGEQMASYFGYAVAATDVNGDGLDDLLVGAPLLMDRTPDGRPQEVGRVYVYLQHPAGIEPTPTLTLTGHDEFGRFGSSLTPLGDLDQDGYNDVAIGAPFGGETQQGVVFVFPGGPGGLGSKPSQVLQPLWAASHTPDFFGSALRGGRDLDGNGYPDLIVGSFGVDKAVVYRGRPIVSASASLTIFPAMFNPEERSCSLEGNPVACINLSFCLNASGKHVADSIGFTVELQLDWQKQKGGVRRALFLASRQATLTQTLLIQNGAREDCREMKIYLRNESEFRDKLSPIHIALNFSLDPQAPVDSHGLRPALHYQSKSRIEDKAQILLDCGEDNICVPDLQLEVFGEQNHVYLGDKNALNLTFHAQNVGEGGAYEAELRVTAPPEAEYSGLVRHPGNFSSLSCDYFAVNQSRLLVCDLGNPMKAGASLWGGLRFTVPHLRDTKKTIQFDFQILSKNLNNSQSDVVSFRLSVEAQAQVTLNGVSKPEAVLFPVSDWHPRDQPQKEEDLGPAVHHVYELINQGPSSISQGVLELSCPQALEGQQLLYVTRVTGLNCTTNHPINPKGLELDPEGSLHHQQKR
Sequence (P08648 895-1049 limits assumed): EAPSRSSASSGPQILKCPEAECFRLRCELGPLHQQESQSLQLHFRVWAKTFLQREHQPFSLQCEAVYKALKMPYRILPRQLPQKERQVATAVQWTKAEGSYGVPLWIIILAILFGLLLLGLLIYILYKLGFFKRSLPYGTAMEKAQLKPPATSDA
Test: Binding affinity to integrin alpha5beta1 receptor by ELISA
Mark satisfied only for IC50 values smaller than 2 nM; exact matches and larger values are not satisfied.

State whether 2 nM exceeds IC50 recorded for Cc1ccnc(NCc2coc(-c3ccc(C[C@H](NC(=O)c4c(C)cc(C)cc4C)C(=O)O)cc3)c2)c1 .
not satisfied

----------
Target: Integrin alpha-5/beta-1 (Homo sapiens, UniProt P05556+P08648)
Test: Binding affinity to integrin alpha5beta1 receptor by ELISA
measured_metric: pIC50
pIC50 here is simply -log10 of the concentration when that concentration is written in mol/L.

Answered cases to consult:
Name the reported pIC50 value associated with the molecule Cc1ccnc(NCc2sccc2-c2ccc(C[C@H](NC(=O)c3c(C)cc(C)cc3C)C(=O)O)cc2)c1
6.05

Also check Cc1ccnc(NCC2CCN(c3ccc(CC(NC(=O)c4c(C)cc(C)cc4C)C(=O)O)cc3)CC2)c1 (racemic)
8.64

Others:
Name the reported pIC50 value associated with the molecule Cc1ccnc(NCc2csc(-c3ccc(C[C@H](NC(=O)c4c(C)cc(C)cc4C)C(=O)O)cc3)c2)c1
7.34

Also check Cc1ccnc(NCc2cc(-c3ccc(C[C@H](NC(=O)c4c(C)cc(C)cc4C)C(=O)O)cc3)on2)c1
8.21

----------
Target: Integrin alpha-V/beta-5 (Homo sapiens, UniProt P06756+P18084)
Sequence (P06756 31-889 limits assumed): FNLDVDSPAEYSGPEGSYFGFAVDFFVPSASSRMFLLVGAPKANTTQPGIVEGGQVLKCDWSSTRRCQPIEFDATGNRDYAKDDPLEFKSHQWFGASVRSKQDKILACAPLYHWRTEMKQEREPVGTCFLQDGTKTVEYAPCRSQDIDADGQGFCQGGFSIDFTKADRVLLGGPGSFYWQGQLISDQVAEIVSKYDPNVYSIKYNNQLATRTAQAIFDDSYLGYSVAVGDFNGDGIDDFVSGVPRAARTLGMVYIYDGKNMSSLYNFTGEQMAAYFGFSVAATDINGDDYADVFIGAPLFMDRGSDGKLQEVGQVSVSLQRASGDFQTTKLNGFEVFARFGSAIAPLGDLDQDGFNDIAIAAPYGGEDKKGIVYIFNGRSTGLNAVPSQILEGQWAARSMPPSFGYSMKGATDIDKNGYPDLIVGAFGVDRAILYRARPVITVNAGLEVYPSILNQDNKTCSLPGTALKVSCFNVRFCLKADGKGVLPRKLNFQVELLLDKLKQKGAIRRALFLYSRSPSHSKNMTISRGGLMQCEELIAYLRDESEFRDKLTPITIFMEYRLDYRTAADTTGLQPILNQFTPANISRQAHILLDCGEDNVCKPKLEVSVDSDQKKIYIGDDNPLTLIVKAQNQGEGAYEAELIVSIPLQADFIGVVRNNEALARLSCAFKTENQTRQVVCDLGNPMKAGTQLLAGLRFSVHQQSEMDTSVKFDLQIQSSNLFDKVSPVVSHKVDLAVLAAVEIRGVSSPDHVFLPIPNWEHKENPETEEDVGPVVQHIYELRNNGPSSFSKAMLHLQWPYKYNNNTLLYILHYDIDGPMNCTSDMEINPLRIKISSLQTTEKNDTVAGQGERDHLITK
Sequence (P06756 891-1048 limits assumed): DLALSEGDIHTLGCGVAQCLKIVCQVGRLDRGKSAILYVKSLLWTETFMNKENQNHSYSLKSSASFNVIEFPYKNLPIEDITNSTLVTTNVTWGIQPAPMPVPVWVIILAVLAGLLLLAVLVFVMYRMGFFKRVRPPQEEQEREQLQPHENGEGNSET
Sequence (P18084 24-799 limits assumed): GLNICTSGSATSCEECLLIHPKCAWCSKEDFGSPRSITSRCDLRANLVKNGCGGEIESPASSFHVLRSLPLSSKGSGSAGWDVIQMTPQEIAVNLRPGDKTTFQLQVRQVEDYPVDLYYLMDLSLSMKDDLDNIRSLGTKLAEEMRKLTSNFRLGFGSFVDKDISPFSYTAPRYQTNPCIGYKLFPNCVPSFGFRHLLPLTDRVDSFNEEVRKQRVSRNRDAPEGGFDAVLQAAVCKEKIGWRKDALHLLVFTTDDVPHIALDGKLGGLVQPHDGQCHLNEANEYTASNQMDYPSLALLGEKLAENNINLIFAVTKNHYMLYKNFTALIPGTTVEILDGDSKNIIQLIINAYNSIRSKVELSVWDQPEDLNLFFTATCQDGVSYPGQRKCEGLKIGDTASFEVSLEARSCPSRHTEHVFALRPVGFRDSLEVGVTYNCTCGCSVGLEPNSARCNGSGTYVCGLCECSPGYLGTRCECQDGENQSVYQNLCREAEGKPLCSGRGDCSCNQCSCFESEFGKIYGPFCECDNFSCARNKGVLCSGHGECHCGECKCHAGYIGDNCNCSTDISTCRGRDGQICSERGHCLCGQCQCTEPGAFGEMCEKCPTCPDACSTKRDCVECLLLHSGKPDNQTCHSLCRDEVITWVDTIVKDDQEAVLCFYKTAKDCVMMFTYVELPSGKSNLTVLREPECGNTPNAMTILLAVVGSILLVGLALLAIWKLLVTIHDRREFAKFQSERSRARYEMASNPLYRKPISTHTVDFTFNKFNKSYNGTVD
Assay: Binding affinity to integrin […] receptor by ELISA
So basically every entry gets a class from its IC50, ranges being c1 = under 500 nM, c2 = from 500 nM up to 10000 nM, c3 = 10000 nM and over

Which category fits this record: Cc1ccnc(NCc2sccc2-c2ccc(C[C@H](NC(=O)c3c(C)cc(C)cc3C)C(=O)O)cc2)c1
c3

Also check Cc1ccnc(NCc2cn(-c3ccc(C[C@H](NC(=O)c4c(C)cc(C)cc4C)C(=O)O)cc3)nn2)c1
c1

Also check Cc1ccnc(NCc2coc(-c3ccc(C[C@H](NC(=O)c4c(C)cc(C)cc4C)C(=O)O)cc3)c2)c1
c2

Also check Cc1ccnc(NCc2cccc(-c3ccc(CC(NC(=O)c4c(C)cc(C)cc4C)C(=O)O)cc3)c2)c1 (racemic)
c3

Also check Cc1cc(C)c(C(=O)N[C@@H](CNC(=O)CO[C@H]2C[C@H](CNc3ccccn3)N(C(=O)CC(C)(C)C)C2)C(=O)O)c(C)c1
c3

Also check Cc1ccnc(NCC2CCN(c3ccc(CC(NC(=O)c4c(C)cc(C)cc4C)C(=O)O)cc3)CC2)c1 (racemic)
c3

Also check Cc1ccnc(NCC2CC(=O)N(c3ccc(C[C@H](NC(=O)c4c(C)cc(C)cc4C)C(=O)O)cc3)C2)c1 (stereo partly specified)
c2

Also check Cc1ccnc(NCc2csc(-c3ccc(C[C@H](NC(=O)c4c(C)cc(C)cc4C)C(=O)O)cc3)c2)c1
c2

Please turn your attention to the following entry.
Which category fits this record: Cc1ccnc(NCc2cc(-c3ccc(C[C@H](NC(=O)c4c(C)cc(C)cc4C)C(=O)O)cc3)on2)c1
c1
